All figures here come from PubChem BioAssay AID1159580.

experiment: chemical genetic growth profiling, strain panel (AID 1159580);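 note: tested at 20 µM; growth read once vehicle control cultures reached saturation at 30 °C; 1 = growth at the plate median or of vehicle wells; lower values mean less growth of the strain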
reported_conditions: S. cerevisiae deletion strains, growth OD, locus YMR263W, strain SAP30, active compounds read low
The campaign covered roughly 5,500 compounds. About 2,000 (36%) were called active. Roughly 18% stayed inconclusive and do not appear here. The list shows a part of the results.
Listed here: items and their measured normalized growth.

molecule	normalized growth
COC(=O)c1c(-c2c(Cl)cccc2Cl)noc1NC(=O)NN1CCCCC1	1
CCCCOC(=O)c1ccc(N)cc1	0.93
N=C1Sc2ccccc2C2=NCCCN12	1.01
N#C/C(=C\c1ccc(Oc2ccccc2)nc1)S(=O)(=O)c1ccccc1	0.956
CC1CNCCN1S(=O)(=O)c1cccc2cnccc12 (centres undefined)	1
CCOC(=O)Nc1ccsc1C(=O)OC	1.02
CCCCN(CCCC)CCCOC(=O)c1ccc(N)cc1	0.982
CCN(CC)CCNC(=O)c1c(-c2c(Cl)cccc2Cl)noc1C	0.992
COCCCNC(=S)Nc1ccc(C)cc1C	0.999
Clc1ccc(C2=CSC3=NCCCN23)cc1	0.986
CC1(C)C2CC(=O)[C@]3(C)C(CC[C@@]4(C)[C@H](c5ccoc5)OC(=O)[C@H]5O[C@]543)[C@@]2(C)C=C[C@@H]1O (some centres undefined)	0.986
O=C(Cn1ccnc1[N+](=O)[O-])NCCO	0.993
Cc1onc(-c2c(Cl)cccc2Cl)c1C(=O)OCC(F)(F)F	1
O=C(c1ccccc1)c1cc2c(cc1Br)OCCO2	0.921
C=C1CCC2C(CC2(C)C)C(=C)CC/C1=N\O (centres undefined)	0.962
Cc1ccc(NC(=O)c2c(F)cccc2Cl)c(C(=O)Nc2ccc(F)cc2)c1	1
CC(C)(C)S(=O)(=O)/C(C#N)=C/N1CCCCC1	1
Cc1ccc(-n2cccc2)c(NC(=S)Nc2ccc(Br)cc2OC(F)(F)F)c1	0.964
Cc1onc(-c2ccccc2)c1NC(=O)Nc1c(Cl)cccc1Cl	0.999
Cc1cc(NC(=O)c2c(-c3c(Cl)cccc3Cl)noc2C)c([N+](=O)[O-])cc1C	1.04
CCCCOC(=O)c1ccccc1C(=O)OCc1ccccc1	0.973
COc1cc2c(cc1OC)C1Cc3ccc(OC)c(OC)c3CN1CC2 (centres undefined)	1
CCC(C)(C)C(=O)O[C@H]1C[C@@H](C)C=C2C=C[C@H](C)[C@H](CC[C@@H]3C[C@@H](O)CC(=O)O3)[C@H]21	0.99
CC(=O)N[C@@H](CS)C(=O)O	1.01

---

experiment: chemical genetic growth profiling, strain panel (AID 1159580)
reported_conditions: S. cerevisiae deletion strains, growth OD, locus YLR262C, strain YPT6 (second series)
Out of some 5,500 compounds screened, about 2,000 (36%) were called active. Not shown: some 18% with an inconclusive outcome. Cut-off read from the data, not from the text of the source: active = normalized growth mostly below about 0.91 (no sharp cut-off); inconclusive = no clear call, values can overlap the other calls; inactive = mostly above about 0.92. Some of the results follow.
Possible outcomes: active, inactive

compound	class_name
CCCC(=O)O[C@]1(C(=O)CO)CCC2[C@@H]3CCC4=CC(=O)CC[C@]4(C)C3[C@@H](O)C[C@@]21C (stereo partly specified)	inactive
CC(C)C(=O)Nc1ccc([N+](=O)[O-])c(C(F)(F)F)c1	inactive
CC1(C)NC(=O)N(c2ccc([N+](=O)[O-])c(C(F)(F)F)c2)C1=O	inactive
C[C@H]1CC[C@@H](C(C)(C)O)CC2=C1CC[C@@H]2C	active
OC(Cn1cncn1)(Cn1cncn1)c1ccc(F)cc1F	active
CCNC(=O)CC[C@H](N)C(=O)O	inactive

---

experiment: chemical genetic growth profiling, strain panel (AID 1159580);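 note: tested at 20 µM; growth read once vehicle control cultures reached saturation at 30 °C; 1 = growth at the plate median or of vehicle wells; lower values mean less growth of the strain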
reported_conditions: S. cerevisiae deletion strains, growth OD, strain wtn01
Screen size: about 5,500 compounds; about 2,000 (36%) were called active. Roughly 18% stayed inconclusive and do not appear here. Cut-off read from the data, not from the text of the source: active = normalized growth mostly below about 0.91 (no sharp cut-off); inconclusive = no clear call, values can overlap the other calls; inactive = mostly above about 0.92. Some of the results follow.
Possible outcomes: yes (1) (active), no (0) (inactive)

compound	class_name
C[C@@H]1C(=O)OC2[C@H](O)C34[C@@H]5OC(=O)[C@@]3(O[C@@H]3OC(=O)[C@H](O)[C@@]34[C@H](C(C)(C)C)[C@H]5O)[C@]21O (some centres not stated)	no (0)
C=C1CCC2C(CC2(C)C)C(=O)CCC1O (configuration not stated)	no (0)
O=C(O)CN1C(=O)c2cccc3cccc(c23)C1=O	no (0)
CC1(C)OC(=O)C=CC2(C)C1CC(O)C1(C)C2CCC2(C)C(c3ccoc3)OC(=O)C3OC321 (configuration not stated)	no (0)
COc1c(OC)c2occc2c2oc(=O)ccc12	no (0)
C=C1C(=O)O[C@@H]2C[C@@]3(C)CCC[C@H](C)C3=C[C@H]12	no (0)
COC(=O)C1=CCCN(C)C1	no (0)
C=C1CCC(C2CC(=O)OC2=O)C(=O)CCC2C1CC2(C)C (configuration not stated)	no (0)
O=C1NC(=O)C(=O)C(=O)N1	no (0)
NC(=O)c1cccc(N)c1	no (0)
CCC(C)c1cnc(CC(C)C)c(=O)n1O (configuration not stated)	no (0)
O=c1cc[nH]c(=S)[nH]1	no (0)
CC(C)(C)CC(C)(C)c1ccc(O)c(Cc2ccc(Cl)cc2Cl)c1	no (0)
CCOC(=O)[C@H](CCc1ccccc1)N[C@@H](C)C(=O)N1[C@H](C(=O)O)C[C@@H]2CCC[C@@H]21	no (0)
CC(C)NC[C@H](O)COc1cccc2ccccc12	no (0)
O=C(Cn1ccnc1[N+](=O)[O-])NCCO	no (0)
COC(=O)[C@@H]1OC(=O)[C@H]2O[C@@]23[C@@]1(C)CCC1[C@@]2(C)CCC(=O)C(C)(C)C2C[C@@H](OC(C)=O)[C@]13C (some centres not stated)	no (0)
Clc1cccc(Cl)c1NC1=NCCN1	no (0)
COC(=O)C[C@H]1C(C)(C)C(=O)[C@@H]2CC3=C(CC[C@]4(C)C3=CC(=O)O[C@H]4c3ccoc3)[C@@]1(C)C2=O	no (0)
NC(CO)C(=O)NNCc1ccc(O)c(O)c1O (configuration not stated)	no (0)
O=C1[C@H](CCC(O)c2ccc(F)cc2)[C@@H](c2ccc(O)cc2)N1c1ccc(F)cc1 (some centres not stated)	no (0)
Oc1ccc(Cl)cc1Cc1cc(Cl)ccc1O	yes (1)

---

experiment: chemical genetic growth profiling, strain panel (AID 1159580);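 note: tested at 20 µM; growth read once vehicle control cultures reached saturation at 30 °C; 1 = growth at the plate median or of vehicle wells; lower values mean less growth of the strain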
reported_conditions: S. cerevisiae deletion strains, growth OD, locus YDR195W, strain ref2
Screen size: about 5,500 compounds; about 2,000 (36%) were called active. About 18% were inconclusive and are not listed. No stated cut-off is given here; in the data, active means normalized growth mostly below about 0.91 (no sharp cut-off); inconclusive means no clear call, values can overlap the other calls; inactive means mostly above about 0.92. The list shows a part of the results.
Classes used: active, inactive

compound	class_name
COc1c(OC)c2occc2c2oc(=O)ccc12	active
CCCOc1ccc(C(=O)OCCN(CC)CC)cc1N	inactive
CC(=O)Oc1c(C)cccc1C(=O)O	inactive
COC(=O)C(O)c1ccccc1 (stereo not given)	inactive
CC(=O)N[C@@H](CS)C(=O)O	inactive
C=C1CCC(C2CC(=O)OC2=O)C(=O)CCC2C1CC2(C)C (stereo not given)	inactive
C=C1CCC2C(CC2(C)C)C(=C)CC/C1=N\O (stereo not given)	inactive
CCCCCCOc1ccccc1C(N)=O	inactive
CCCCOC(=O)c1ccc(N)cc1	inactive
Cc1ccc(Cl)c(Nc2ccccc2C(=O)O)c1Cl	inactive
COc1ccc(-c2coc3cc(OC)cc(OC)c3c2=O)cc1	inactive
CCC(C)C(=O)O[C@H]1C[C@H](O)C=C2C=C[C@H](C)[C@H](CC[C@@H](O)C[C@@H](O)CC(=O)O)C21 (stereo not given in full)	inactive
CCN(CC)CCOC(=O)c1ccc(N)cc1	inactive
COc1cc(-c2coc3cc(OC)c(OC)c(OC)c3c2=O)cc(OC)c1OC	inactive
CCCCOC(=O)c1ccccc1C(=O)OCCCC	inactive
CC[C@H](C)C(=O)O[C@H]1C[C@@H](C)C=C2C=C[C@H](C)[C@H](CC[C@@H]3C[C@@H](O)CC(=O)O3)[C@H]21	inactive
COC(=O)[C@@H]1OC(=O)[C@H]2O[C@@]23[C@@]1(C)CCC1[C@@]2(C)CCC(=O)C(C)(C)C2C[C@@H](OC(C)=O)[C@]13C (stereo not given in full)	inactive
CC(C(=O)O)c1ccc(C(=O)c2cccs2)cc1 (stereo not given)	inactive
COc1c2ccoc2c(OC)c2oc(=O)ccc12	active
O=C(C1CCCCC1)N1CC(=O)N2CCc3ccccc3C2C1 (stereo not given)	inactive
O=S1OCC2C(CO1)C1(Cl)C(Cl)=C(Cl)C2(Cl)C1(Cl)Cl (stereo not given)	inactive
C[C@H]1CC[C@@H](C(C)(C)O)CC2=C1CC[C@@H]2C	active
CO[C@@]1(NC(=O)CSCC#N)C(=O)N2C(C(=O)O)=C(CSc3nnnn3C)CSC21 (stereo not given in full)	inactive
OCc1ccccc1O	inactive
CCCCC(=O)Oc1ccccc1C(=O)O	inactive

---

experiment: chemical genetic growth profiling, strain panel (AID 1159580);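 note: tested at 20 µM; growth read once vehicle control cultures reached saturation at 30 °C; 1 = growth at the plate median or of vehicle wells; lower values mean less growth of the strain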
reported_conditions: S. cerevisiae deletion strains, growth OD, locus YGR229C, strain SMI1, active compounds read low
About 2,000 (36%) of roughly 5,500 compounds were called active. Not shown: some 18% with an inconclusive outcome. The list shows a part of the results.
Below: a set of entries, each annotated with reported normalized growth.
property_name: normalized growth

compound	numeric_readout
NC/C=C\C(=O)O	1.02
CCCN1CCC[C@H](c2cccc(O)c2)C1	1
COc1cc2occ(-c3ccccc3)c(=O)c2c(OC)c1C	0.813
CO[C@@]1(NC(=O)CSCC#N)C(=O)N2C(C(=O)O)=C(CSc3nnnn3C)CSC21 (stereo not given in full)	1.02
C=C1C(C)C2C(Cc3ccccc3)NC(=O)C23OC(=O)/C=C/C(=O)CCCC(C)C/C=C/C3C1O (stereo not given)	0.609
CCCCN1CCCCC1C(=O)Nc1c(C)cccc1C (stereo not given)	1.01
O=C1CC2OCC=C3CN4CC[C@]56c7ccccc7N1C5[C@H]2[C@H]3CC46 (stereo not given in full)	1.03
CCCN1CCC[C@@H](c2cccc(O)c2)C1	0.999
CCCC(=O)O[C@]1(C(=O)CO)CCC2[C@@H]3CCC4=CC(=O)CC[C@]4(C)C3[C@@H](O)C[C@@]21C (stereo not given in full)	0.987
CO/N=C(/C(=O)N[C@@H]1C(=O)N2C(C(=O)O)=C(COC(C)=O)CS[C@H]12)c1csc(N)n1	1
